Would you kindly list inhibition for each of these molecules?
- protocolText: Leishmania major promastigote growth inhibition, primary screen (AID 1063);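 further: promastigotes grown with compound for 44 hours at 28 °C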
- conditionDetails: Leishmania major promastigotes, resazurin fluorescence viability; at 10 µM; hits give high values
The campaign covered roughly 200,000 compounds. About 18,000 (9%) were called active. The list comes from a sample in which actives are over-represented; it also holds close analogues and randomly drawn compounds.
Numbers only, in %.

molecule	inhibition (%)
CC1(c2ccccc2)CC(C)(C)N(C(=O)c2cc([N+](=O)[O-])cc([N+](=O)[O-])c2)c2ccccc21 (stereo not given)	99.6
COc1ccc(/C=C(\C#N)C(=O)NCCCn2ccnc2)cc1	55.7
CCOC(=O)C(=CNc1cccc(C)n1)C(=O)OCC	-3.94
Cc1cc(C(=O)CSc2nc(N)cc(=O)[nH]2)c(C)n1-c1cccc(F)c1	23.6
CN1/C(=C\C=C2\N=C(c3ccc(F)cc3)OC2=O)C(C)(C)c2ccccc21	63.4

// each listed molecule needs a value for inhibition
1. OCCC1CN(Cc2cccn2-c2nccs2)CCN1CCc1ccccc1 (stereo not given)
2. O=C(CSc1nc2ccccc2o1)N1CCN(c2ccc(Cl)cc2)CC1
3. Cc1ccccc1CN1CCN(CC(=O)NCc2ccccn2)C1=O
4. CCC(c1nnnn1C1CCCC1)N1CCN(C(=O)c2ccco2)CC1 (stereo not given)
5. CCN(CCn1cccn1)Cc1nc(-c2ccc(C(=O)OC)cc2)no1
6. CC(C)C(c1nnnn1C1CCCC1)N1CCN(c2ccccc2F)CC1 (stereo not given)
7. COc1ccccc1C(=O)C(O)c1ccccc1OC (stereo not given)
8. COc1ccccc1-c1cc(C(=O)NCCCn2ccnc2)no1

1. 11.3
2. 0.01
3. -4.22
4. -6.05
5. 5.81
6. 33
7. 1.96
8. 6.26

----------
- protocolText: Leishmania major promastigote growth inhibition, primary screen (AID 1063);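 further: promastigotes grown with compound for 44 hours at 28 °C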
- conditionDetails: Leishmania major promastigotes, resazurin fluorescence viability; at 10 µM; hits give high values
Screen size: about 200,000 compounds; about 18,000 (9%) were called active. The sample as a whole holds a higher share of actives than the screen did.
Would you kindly list inhibition for each of these compounds?
Answers are plain numbers, in %.

Solved entries (count: 5):
compound	inhibition / %
CN1CCN(/N=C2/C(=O)Nc3ccc([N+](=O)[O-])cc32)CC1	-2.49
COc1ccc(Nc2nc(-c3ccccc3)cs2)cc1	-2.02
Cc1cc(C)c2c3c(sc2n1)C(c1ccccc1)C(C#N)=C(N)O3 (stereo not given)	100
Cc1cccc(C(=O)N2CCc3c([nH]c4ccccc34)C2CC(C)C)n1 (stereo not given)	31.8
COc1cc(OC)cc(-c2nc(=S)n3ccsc3n2)c1	-3.3

// each listed compound needs a value for inhibition
1. O=C(CNC1CCCCC1)NCC1(c2ccccc2)CCCC1
2. COc1ccc(Oc2c(Cl)cnn(-c3ccccc3)c2=O)cc1
3. COc1ccc(-n2c(C)nc3c(cnn3-c3ccccc3)c2=O)cc1
4. COc1ccc(C2=NN(C(=O)CCC(=O)O)C(c3cccs3)C2)cc1OC (stereo not given)

1. 19.4
2. 59.1
3. -7.18
4. -5.57

// each listed compound needs a value for inhibition
1. Cc1cc([N+](=O)[O-])ccc1NCc1cccc([N+](=O)[O-])c1
2. O=C(CSCc1ccc([N+](=O)[O-])cc1)NCCSCc1ccccc1
3. O=C(CSc1ccccc1)Nc1cc(Cl)ccc1Oc1ccccc1
4. Cn1c(=O)c2c(nc(N3CCCCCC3)n2CC(=O)c2ccc(Br)cc2)n(C)c1=O
5. Nc1nc(SCC(=O)NNc2c(Cl)cc(Cl)cc2Cl)n[nH]1
6. Cc1cc(C)c(C#N)c(SCc2[nH]nc3c2C(c2ccccc2)C(C#N)=C(N)O3)n1 (stereo not given)

[-1.47, 12.9, 14.8, -0.4, -7.01, 8.99]
